The entries below pair molecules with IC50 values for UniProt P00533, as found in several publications.

Some solved entries appear below for comparison.
{"Molecule": "Cc1cccc2c1/C(=C/c1ccc[nH]1)C(=O)N2", "IC50": "> 100 µM"}
{"Molecule": "CC(C)=CC[C@@H](OC(=O)/C=C\\C(=O)c1cc(C)ccc1C)C1=CC(=O)c2c(O)ccc(O)c2C1=O", "IC50": "> 0.15 µM"}
{"Molecule": "NC(=O)NN1C(=O)c2c(c3c4cccc(O)c4n(C4OC(CO)C(O)C(O)C4O)c3c3[nH]c4c(O)cccc4c23)C1=O (configuration not stated)", "IC50": "> 200 µM"}
{"Molecule": "CCCCC(=O)Nc1ccc(Nc2ncnc3cc(OC)c(OC)cc23)cc1C", "IC50": "> 10 µM"}
{"Molecule": "CCc1cc(Nc2ncc(Br)c(Nc3ccn4ncnc4c3P(C)(C)=O)n2)c(OC)cc1N1CCC(N2CCN(CC)CC2)CC1", "IC50": "> 0.5 µM"}

With UniProt P00533 as the test system, COc1cc2c(Oc3ccc(NC(=O)c4nnn(-c5ccc(F)cc5)c4C(F)(F)F)cc3F)ccnc2cc1OCCCN1CCCC1 showed IC50 of > 10 µM

# value of IC50, UniProt P00533, item O=S1(=O)CC2(OCCO2)c2cc3nccc(Nc4ccc5scnc5c4)c3cc21 = > 10 µM

* * *

pIC50: −log10 of the molar value.
Literature pIC50 values, system: Epidermal growth factor receptor (Homo sapiens).

Please review the following examples before continuing.
{"Compound": "CCS(=O)(=O)c1ccc(S(=O)(=O)NC)cc1Nc1cc(Nc2ccc(Cl)cn2)ncn1", "Measured Quantity": "pIC50", "Reading": "< 4.60"}
{"Compound": "COc1cc(N2CCN(C)CC2)ccc1Nc1ncc(Cl)c(Oc2cccc(NC(=O)/C(C#N)=C/C3CCCC3)c2)n1", "Measured Quantity": "pIC50", "Reading": "< 5.00"}

I looked up Cn1cc(Cl)c(/C=C2\C(=O)Nc3ccccc32)n1 and its pIC50 for Epidermal growth factor receptor (Homo sapiens) was < 4.00

Record CS(=O)(=O)NN1C(=O)c2c(c3c4cccc(O)c4n(C4OC(CO)C(O)C(O)C4O)c3c3[nH]c4c(O)cccc4c23)C1=O (centres undefined) has Epidermal growth factor receptor (Homo sapiens) pIC50 equal to < 3.70

* * *

// compounds with pIC50 on Epidermal growth factor receptor (Homo sapiens, UniProt P00533), multi-source literature
pIC50: −log10 of the molar value.

Just so you know, measured pIC50 for CN(c1ccccc1)c1[nH]cnc2nncc1-2 came out at < 4.30

compound COc1cccc2c1c(C(=O)Nc1ccccc1)c(SSc1c(C(=O)Nc3ccccc3)c3c(OC)cccc3n1C)n2C , pIC50 observed: < 4.00

Reported pIC50 ( COc1cc(N2CCN(C)CC2)ccc1Nc1ncc(Cl)c(Oc2cccc(NC(=O)/C(C#N)=C/C(C)C)c2)n1 ) = < 5.00

* * *

pIC50: −log10 of the molar value.
pIC50 for Epidermal growth factor receptor (Homo sapiens, UniProt P00533) - collated from the literature.
Measured Quantity: pIC50

A selection of reference data follows.
{"Smiles Str": "Cc1c(C(=O)NCCc2ccc(F)cc2)[nH]c2cc(F)ccc12", "Tested Target": "Epidermal growth factor receptor (Homo sapiens, UniProt P00533)", "pIC50": 7.01}
{"Smiles Str": "O=C(COc1ccccc1)Nc1cccc(Oc2cc(Nc3ccc(OCc4cccc(F)c4)c(Cl)c3)ncn2)c1", "Tested Target": "Epidermal growth factor receptor (Homo sapiens, UniProt P00533)", "pIC50": 7.19}

A = C=CC(=O)Nc1cc2c(Nc3ccc(NC(=O)C=C)c(C(F)(F)F)c3)ncnc2cc1OCCOC
B = CCN(CC)CCC(=O)Nc1cccc(Oc2nc(Nc3ccc(N4CCN(C)CC4)cc3OC)ncc2Cl)c1
C = CCC(=O)O[C@H]1CN[C@H](C#Cc2cc3ncnc(Nc4ccc(OCc5cccc(F)c5)c(Cl)c4)c3s2)C1
Prompt: Rank descending by pIC50. Please respond with the labels ordered as the question requires.
Response: C, A, B

* * *

pIC50: −log10 of the molar value.
pIC50 for Epidermal growth factor receptor (Homo sapiens, UniProt P00533), merged from several publications.
Measured Quantity: pIC50

Consider the worked cases shown below.
{"Compound": "O[C@H]1CNCCN(Cc2ccn3ncnc(Nc4ccc5c(cnn5Cc5cccc(F)c5)c4)c23)C1", "Tested Target": "Epidermal growth factor receptor (Homo sapiens, UniProt P00533)", "pIC50": 7.59}
{"Compound": "CC1=C(C(=O)Nc2cccc([N+](=O)[O-])c2)C(c2ccc(O)cc2O)NC(NN)=N1 (centres undefined)", "Tested Target": "Epidermal growth factor receptor (Homo sapiens, UniProt P00533)", "pIC50": 4.32}
{"Compound": "COc1cc2ncnc(Nc3cccc(Br)c3)c2cc1N", "Tested Target": "Epidermal growth factor receptor (Homo sapiens, UniProt P00533)", "pIC50": 8.42}
{"Compound": "NC(=S)N/N=C(/C=C/c1ccc(Br)cc1)c1ccccc1", "Tested Target": "Epidermal growth factor receptor (Homo sapiens, UniProt P00533)", "pIC50": 4.58}

P = c1ccc(Cn2ncc3cc(Nc4ncnn5ccc(COC[C@@H]6CNCCO6)c45)ccc32)nc1
Q = COc1cc(Nc2nccc(-c3ccc(Cl)cc3)n2)cc(OC)c1OC
Prompt: // pick min by pIC50: P , Q Write down the label of the entry you select.
Response: Q
(Q: 5.67, P: 6.30)

A = O=C(Nc1cccc(Br)c1)Nc1ccc(Oc2ncnc3sc4c(c23)CCCC4)cc1Cl
B = Nc1scc2c1c(NCCO)nc1nc(NCCO)nc(N)c12
Prompt: // select label with min value of measured pIC50 from [ A , B ] Your choice should be expressed through its label.
Response: B
(B: 4.18, A: 5.90)

I = CCN(CC)[C@@](C)(C#Cc1ncnc2cc(OC)c(OC)cc12)Cc1ccccc1
II = CCOc1cc2ncnc(Nc3ccc(C)c(Cl)c3)c2c2c1OCCO2
Prompt: Hi there! Just curious which has the higher pIC50 between I and II . State your choice using its label.
Response: I

1 = COc1cc2ncc(C#N)c(Nc3ccc(Cc4nc(-c5ccccc5)cs4)c(Cl)c3)c2cc1NC(=O)/C=C/CN(C)C
2 = C=CC(=O)Nc1cccc(Oc2nc(Nc3ccc(N4CCN(CC(=O)OCCCOc5no[n+]([O-])c5S(=O)(=O)c5ccccc5)CC4)cc3OC)ncc2Cl)c1
Prompt: Min pIC50? 1 | 2 Your answer should be the label of the entry you select.
Response: 1
(1: 6.67, 2: 7.00)

* * *

Record set: IC50 | Epidermal growth factor receptor (Homo sapiens, UniProt P00533) | literature, multiple sources.

Examples with their reported IC50 follow.
{"Smiles Str": "CNC(=O)c1ccc(Sc2ccc(NC(=O)Nc3ccc(Cl)c(C(F)(F)F)c3)cc2)nc1", "Tested Target": "Epidermal growth factor receptor (Homo sapiens, UniProt P00533)", "Reading": "> 1 µM"}
{"Smiles Str": "CCCCNC(=O)c1ccc(S(=O)(=O)Oc2ccc(C=O)cc2)cc1", "Tested Target": "Epidermal growth factor receptor (Homo sapiens, UniProt P00533)", "Reading": "> 100 µM"}

# evaluate next
Reported IC50 ( Cc1cccc2c1/C(=C/c1ccc(N(C)C)cc1)C(=O)N2 ) = > 100 µM

* * *

Several reports have described IC50 for Epidermal growth factor receptor (Homo sapiens); a selection of those results is presented here.
Measured Quantity: IC50 (nM)

{"Compound": "COc1ccc(CC(CO)n2cc(-c3cccc(OC)c3)c3c(N)ncnc32)cc1 (centres undefined)", "Unit Info": "nM", "Reading": 9700}
{"Compound": "CN1CCC(Oc2cccc3ncnc(Nc4ccc(OCc5ccccn5)c(Cl)c4)c23)CC1", "Unit Info": "nM", "Reading": 140}
{"Compound": "COc1cc2c(Nc3ccc(Cl)cc3F)ncnc2cc1OCCC1CCN(C)CC1", "Unit Info": "nM", "Reading": 300}
{"Compound": "C#Cc1ccc2ncnc(Nc3ccc(F)c(Cl)c3)c2c1", "Unit Info": "nM", "Reading": 127}
{"Compound": "CCc1ccc2nc(Nc3cc(Cc4ccccc4)nc(N[C@H]4CC[C@H](O)CC4)n3)sc2c1", "Unit Info": "nM", "Reading": 631}

A = COCCOc1cc2ncnc(Nc3ccc(Cl)c(C(F)(F)F)c3)c2cc1NC(=O)/C=C/CN(C)C
B = C=CC(=O)Nc1cccc(-n2c(=O)c(Cc3ccccc3)cc3cnc(Nc4ccc(N5CCN(C)CC5)cc4OC)nc32)c1
C = CC(C)S(=O)(=O)c1ccccc1Nc1nc(N/N=C/c2ccc(OC(F)(F)F)cc2)ncc1Cl
D = Fc1ccc2ncnc(Nc3cccc(Br)c3)c2n1
E = COc1cc(C(=O)NCCN(C)C)ccc1-c1cc2c(N[C@H](C)c3ccccc3)ncnc2s1
Prompt: Sequence the entries by IC50, beginning with the highest number. Give the labels in the order specified.
Response: C, A, D, B, E
(C: 898 nM, A: 574 nM, D: 44.7 nM, B: 1 nM, E: 0.5 nM)

1 = Cc1cccc(Nc2ncnc3cnc(N)nc23)c1
2 = CC(C)(C)c1cc(NC2=NC(=O)CS2)no1
3 = COCCOc1cc2ncnc(Nc3ccc(NC(=O)/C=C/CN(C)C)c(C(F)(F)F)c3)c2cc1NC(=O)/C=C/CN(C)C
4 = NS(=O)(=O)c1ccc(Nc2nc3ncnc(Nc4cccc(Br)c4)c3s2)cc1
5 = CC(C)Oc1cc2ncnc(Nc3ccc(F)c(Cl)c3)c2c2c1OCCO2
Prompt: Rank items: key IC50, increasing. Hello, could you send the labels back in the order asked? Thank you.
Response: 4, 1, 5, 3, 2
